study system: T1, VEGFR-1-Fc (UniProt P17948 27-338)
T1 construct: domain: first three Ig domains; expressed in Drosophila S2 cells, purified on Protein A sepharose; also called VEGFR-1-Fc fusion protein; not shown: Fc fragment from the Signal-pIgPlus vector
T1 sequence (P17948 27-338): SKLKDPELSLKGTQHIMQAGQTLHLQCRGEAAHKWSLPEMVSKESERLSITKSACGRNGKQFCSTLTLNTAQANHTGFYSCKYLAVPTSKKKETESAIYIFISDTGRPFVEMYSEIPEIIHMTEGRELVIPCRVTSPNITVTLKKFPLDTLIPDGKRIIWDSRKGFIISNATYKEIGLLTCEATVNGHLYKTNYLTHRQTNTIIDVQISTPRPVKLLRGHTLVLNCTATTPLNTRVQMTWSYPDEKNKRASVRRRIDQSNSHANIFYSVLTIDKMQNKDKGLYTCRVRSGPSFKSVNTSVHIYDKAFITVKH
protocol notes: receptor-Fc IP

binder	binding result
33-15 (ligand) GQNHHEVVKSIDNEWRKTQCMPIETLVDIFQEYPDEIEYIFKPPCVSVYRCGGCCNSEGLQCVPTEESNITMQIMRITVPLSQGPKPVTISFANHTSCRCMSKLD	no binding
11-7 (ligand) GQNHHEVVKFMDVYQRSYCHPIETLVDIFQEYPDEIEYIFKPSCVPLMRCGGCCNSEGLQCVPTEESNITMQIMRIKPHQGQHIGEMSFANHTSCRCMSKLD	binds
41-13 (ligand) AHYNTEILKFMDVYQRSYCHPREVCIDVGKEYPDEIEYIFKPSCVPLMRCGGCCNDEGLECVPTEESNITMQIMRITVPLSQGPKPVTISFANHTSCRCMSKLD	no binding
32-14 (ligand, clone entry) GQNHHEVVKSIDNEWRKTQCMPIETLVDIFQEFGVATNTFFKPPCVSVYRCGGCCNDEGLECMNTSTSYLSKTLFEITVPLSQGPKPVTISFANHTSCRCMSKLD	no binding

Value source: patent US20080058263A1
